Test system: HepaRG
procedureDetails: LDH release cytotoxicity, % of total lysis control; higher = more cytotoxic
measurementConditions: 10.05 µM; 48 h
Counter-ions that a name gives are not always drawn.
assayReadout: LDH release cytotoxicity
Write the quantity with the unit trailing the number.

Previously resolved entries follow.
{"columns": ["molecule", "targetDesc", "assayReadout", "result"],
 "data": [
  ["CCCCOC(=O)C(C)Oc1ccc(Oc2ccc(C(F)(F)F)cn2)cc1 (stereo not given)", "HepaRG", "LDH release cytotoxicity", "-0.416%"],
  ["C=CCOC(=O)C(C)(C)OC(=O)c1cc(-n2c(=O)cc(C(F)(F)F)n(C)c2=O)ccc1Cl", "HepaRG", "LDH release cytotoxicity", "-0.764%"]
]}

Provide reported LDH release cytotoxicity for each item, in the same order as listed.
1. N#Cc1nn(-c2c(Cl)cc(C(F)(F)F)cc2Cl)c(N)c1S(=O)C(F)(F)F (stereo not given)
2. CNC(=O)Oc1cccc(N=CN(C)C)c1 [Formetanate hydrochloride]
3. Cc1ccc(N)c(N)c1

["-1.68%", "-5.88%", "-0.448%"]

====

Can you tell me LDH release cytotoxicity for the items I'm about to list?
Tested on: HepaRG
procedureDetails: LDH release cytotoxicity, % of total lysis control; higher = more cytotoxic
measurementConditions: 0.1005 µM; 48 h
Where a name gives a salt, the structure may show the parent alone.
Numbers only, in %.

Previously resolved entries follow.
{"columns": ["compound", "LDH release cytotoxicity / %"],
 "data": [
  ["CCCCOC(=O)CCCCC(=O)OCCCC [Dibutyl adipate]", -1.45],
  ["N#Cc1nn(-c2c(Cl)cc(C(F)(F)F)cc2Cl)c(N)c1S(=O)C(F)(F)F (stereo unspecified)", -0.938],
  ["CC1(c2ccc(Oc3ccccc3)cc2)OC(=O)N(Nc2ccccc2)C1=O (stereo unspecified)", -1.03]
]}

Provide reported LDH release cytotoxicity for each item, in the same order as listed.
1. Cc1ccc(N)c(N)c1
2. CNC(=O)Oc1cccc(N=CN(C)C)c1 [Formetanate hydrochloride]
3. OCCO

-0.403
-7.63
-1.93

====

Test system: HepaRG
procedureDetails: LDH release cytotoxicity, % of total lysis control; higher = more cytotoxic
measurementConditions: 10 µM; 48 h
assayReadout: LDH release cytotoxicity (%)
Give bare numbers, in %.

Previously resolved entries follow.
{"columns": ["compound", "quantityUnit", "LDH release cytotoxicity"],
 "data": [
  ["CC(C)CC(C)(O)C#CC(C)(O)CC(C)C (stereo not given) [2,4,7,9-Tetramethyl-5-decyne-4,7-diol]", "%", -0.333],
  ["Cn1c(-c2ccccc2)cc(-c2ccccc2)[n+]1C [Difenzoquat metilsulfate]", "%", -3.6],
  ["COc1nn(CSP(=S)(OC)OC)c(=O)s1 [Methidathion]", "%", 1.08]
]}

Provide reported LDH release cytotoxicity for each item, in the same order as listed.
1. CCCCCCCCO [1-Octanol]
2. CCN1CCC2(CC1)COc1cc3c(cc12)N(C(=O)c1ccc(-c2ccc(-c4nnc(C)o4)cc2C)cc1)CC3
3. CNC(=O)Oc1cccc2ccccc12 [Carbaryl]
4. Cc1cnc(C2=NC(=O)C(C)(C(C)C)N2)c(C(=O)O)c1 (stereo not given) [Imazapic]
5. ClC1=C(Cl)C2(Cl)C3C(Cl)C=CC3C1(Cl)C2(Cl)Cl (stereo not given) [Heptachlor]
6. CCC(CC)Nc1c([N+](=O)[O-])cc(C)c(C)c1[N+](=O)[O-] [Pendimethalin]

[-1.49, -2.54, 0.0525, -0.919, -1.78, 0.875]

Recorded LDH release cytotoxicity for CCOP(=O)(SC(C)CC)N1CCSC1=O (stereo not given) [Fosthiazate] , please?
-0.389

====

Test system: HepaRG
procedureDetails: LDH release cytotoxicity, % of total lysis control; higher = more cytotoxic
measurementConditions: 1 µM; 48 h
Can you tell me LDH release cytotoxicity for the items I'm about to list?
Give bare numbers, in %.

Previously resolved entries follow.
{"columns": ["compound", "measuredNumber"],
 "data": [
  ["O=Cc1ccccc1C=O", -0.52],
  ["C=CCc1cc(S(=O)(=O)c2ccc(O)c(CC=C)c2)ccc1O [4,4'-Sulfonylbis[2-(prop-2-en-1-yl)phenol]]", -2.39],
  ["CCCCc1ccccc1", -0.547],
  ["Fc1ccccc1C(F)COC1CCC(Nc2[nH]cnc3nncc2-3)CC1 (centres undefined)", -2.2],
  ["COC(=O)NC(=S)Nc1ccccc1NC(=S)NC(=O)OC [Thiophanate-methyl]", -1.83]
]}

Provide reported LDH release cytotoxicity for each item, in the same order as listed.
1. Cc1oc2c(NC(=O)c3c(Cl)cccc3Cl)cccc2c1C(C)(C)O
2. Cc1ccc(C)c(O)c1
3. O=C(Oc1ccc(Br)cc1)N1CCN2CCC1CC2
4. COC(=O)N(OC)c1ccccc1COc1ccn(-c2ccc(Cl)cc2)n1

-1.94
-1.34
-1.45
-2.24

====

Can you tell me LDH release cytotoxicity for the items I'm about to list?
System: HepaRG
procedureDetails: LDH release cytotoxicity, % of total lysis control; higher = more cytotoxic
measurementConditions: 31.6228 µM; 48 h
Where a name gives a salt, the structure may show the parent alone.
Answers are plain numbers, in %.

Provide reported LDH release cytotoxicity for each item, in the same order as listed.
1. CN1C(=O)N(c2ccccc2Br)Cc2cnc(Nc3ccc4c(c3)OCC(CO)O4)nc21 (stereo not drawn)
2. O=S(=O)(O)C(F)(F)C(F)(F)C(F)(F)C(F)(F)C(F)(F)C(F)(F)C(F)(F)C(F)(F)F
3. O=C(O)CC(O)C(=O)O (stereo not drawn)
4. O=[N+]([O-])c1ccc(Cl)c(Cl)c1
5. CC(=O)OCC=C(C)CCC=C(C)C [Geranyl acetate]
6. CC(C)(c1cc(Br)c(O)c(Br)c1)c1cc(Br)c(O)c(Br)c1
7. CCCCOC(=O)c1ccccc1C(=O)OCc1ccccc1 [Benzyl butyl phthalate]
8. CC(C)(C)CC(C)(C)c1ccc(O)cc1

[8.29, -0.893, -1.33, -1.86, -1.98, 0.933, -0.748, -0.473]

Provide reported LDH release cytotoxicity for each item, in the same order as listed.
1. CN/C(=N\[N+](=O)[O-])NCc1cnc(Cl)s1
2. CCOc1ccc2c(c1)C(C)=CC(C)(C)N2
3. O=C(O)COc1ccc(Cl)cc1Cl
4. CC1CC(C)C(=O)C(C(O)CC2CC(=O)NC(=O)C2)C1 (stereo not drawn) [Cycloheximide]
5. CCCCC(CC)COC(=O)CCCCC(=O)OCC(CC)CCCC (stereo not drawn) [Bis(2-ethylhexyl)hexanedioate]
6. Cc1oc(-c2ccccc2)nc1CCOc1cccc2c1ccn2CCC(=O)O
7. Cc1ccc(Cl)cc1
8. CCN1CCC2(CC1)COc1cc3c(cc12)N(C(=O)c1ccc(-c2ccc(-c4nnc(C)o4)cc2C)cc1)CC3

1. -0.557
2. -1.67
3. 48.3
4. 24
5. -2.54
6. -0.577
7. -1.15
8. -2.8

Provide reported LDH release cytotoxicity for each item, in the same order as listed.
1. c1ccc2ncccc2c1
2. COc1ccc2c(c1)c(CC(=O)O)c(C)n2C(=O)c1ccc(Cl)cc1
3. CCC[CH2][Sn]([Cl])([CH2]CCC)[CH2]CCC [Tributyltin chloride]
4. C#CC(C)(C)NC(=O)c1cc(Cl)cc(Cl)c1 [Propyzamide]
5. CCCCCCCCCCCCCCOS(=O)(=O)O [Sodium myristyl sulfate]
6. CC(C)(C)OOC(C)(C)CCC(C)(C)OOC(C)(C)C
7. C=C(C)C(N)=O [Methacrylamide]

[-0.47, 0.637, -1.81, -0.378, -1.69, 1.22, -0.444]

Provide reported LDH release cytotoxicity for each item, in the same order as listed.
1. CCSC(=O)N(CC)C1CCCCC1 [Cycloate]
2. N=C(Nc1ccccc1)Nc1ccccc1
3. Clc1nc(Cl)nc(Nc2ccccc2Cl)n1

[0.446, -1.1, 0.799]

====

System: HepaRG
procedureDetails: LDH release cytotoxicity, % of total lysis control; higher = more cytotoxic
measurementConditions: 0.03162 µM; 48 h
assayReadout: LDH release cytotoxicity

Previously resolved entries follow.
{"columns": ["molecule", "result"],
 "data": [
  ["COc1ccc(-c2ccccc2)cc1NNC(=O)OC(C)C [Bifenazate]", "-1.53%"],
  ["CC(N)=O [Acetamide]", "-1.42%"],
  ["CN(CC(CC[N+]12CCC(C3CCCCC3)(CC1)CC2)c1ccc(Cl)c(Cl)c1)C(=O)c1cc(C(F)(F)F)cc(C(F)(F)F)c1 (stereo not given)", "-0.117%"],
  ["Cc1ccc(C)c(O)c1C", "-2.75%"],
  ["COCCO", "-2.71%"]
]}

Provide reported LDH release cytotoxicity for each item, in the same order as listed.
1. O=C(O)Cc1cc(I)c(Oc2ccc(O)c(I)c2)c(I)c1
2. Cc1cccc(N)c1N
3. CCOc1cccc(-n2cc(C(=O)N3CCN(c4cc(C(=O)O)c5ccccc5c4)CC3)nc2-c2ccc(C)cc2)c1
4. c1ccc(N=Nc2ccccc2)cc1
5. O=C(O)c1ccc([N+](=O)[O-])cc1

1. 1.48%
2. -0.0536%
3. 1.24%
4. -1.57%
5. -2.11%
